# TARGET SYSTEM: F508delCFTR (Homo sapiens, UniProt P13569, DEL508-508)
# Construct: expressed in transfected cells; host or cells: CFBE41o- human lung-derived epithelial cells (CFBE4lo-F508delCFTR-HRP), doxycycline-inducible
# Sequence (P13569 with tags, fused parts or gaps DEL508-508): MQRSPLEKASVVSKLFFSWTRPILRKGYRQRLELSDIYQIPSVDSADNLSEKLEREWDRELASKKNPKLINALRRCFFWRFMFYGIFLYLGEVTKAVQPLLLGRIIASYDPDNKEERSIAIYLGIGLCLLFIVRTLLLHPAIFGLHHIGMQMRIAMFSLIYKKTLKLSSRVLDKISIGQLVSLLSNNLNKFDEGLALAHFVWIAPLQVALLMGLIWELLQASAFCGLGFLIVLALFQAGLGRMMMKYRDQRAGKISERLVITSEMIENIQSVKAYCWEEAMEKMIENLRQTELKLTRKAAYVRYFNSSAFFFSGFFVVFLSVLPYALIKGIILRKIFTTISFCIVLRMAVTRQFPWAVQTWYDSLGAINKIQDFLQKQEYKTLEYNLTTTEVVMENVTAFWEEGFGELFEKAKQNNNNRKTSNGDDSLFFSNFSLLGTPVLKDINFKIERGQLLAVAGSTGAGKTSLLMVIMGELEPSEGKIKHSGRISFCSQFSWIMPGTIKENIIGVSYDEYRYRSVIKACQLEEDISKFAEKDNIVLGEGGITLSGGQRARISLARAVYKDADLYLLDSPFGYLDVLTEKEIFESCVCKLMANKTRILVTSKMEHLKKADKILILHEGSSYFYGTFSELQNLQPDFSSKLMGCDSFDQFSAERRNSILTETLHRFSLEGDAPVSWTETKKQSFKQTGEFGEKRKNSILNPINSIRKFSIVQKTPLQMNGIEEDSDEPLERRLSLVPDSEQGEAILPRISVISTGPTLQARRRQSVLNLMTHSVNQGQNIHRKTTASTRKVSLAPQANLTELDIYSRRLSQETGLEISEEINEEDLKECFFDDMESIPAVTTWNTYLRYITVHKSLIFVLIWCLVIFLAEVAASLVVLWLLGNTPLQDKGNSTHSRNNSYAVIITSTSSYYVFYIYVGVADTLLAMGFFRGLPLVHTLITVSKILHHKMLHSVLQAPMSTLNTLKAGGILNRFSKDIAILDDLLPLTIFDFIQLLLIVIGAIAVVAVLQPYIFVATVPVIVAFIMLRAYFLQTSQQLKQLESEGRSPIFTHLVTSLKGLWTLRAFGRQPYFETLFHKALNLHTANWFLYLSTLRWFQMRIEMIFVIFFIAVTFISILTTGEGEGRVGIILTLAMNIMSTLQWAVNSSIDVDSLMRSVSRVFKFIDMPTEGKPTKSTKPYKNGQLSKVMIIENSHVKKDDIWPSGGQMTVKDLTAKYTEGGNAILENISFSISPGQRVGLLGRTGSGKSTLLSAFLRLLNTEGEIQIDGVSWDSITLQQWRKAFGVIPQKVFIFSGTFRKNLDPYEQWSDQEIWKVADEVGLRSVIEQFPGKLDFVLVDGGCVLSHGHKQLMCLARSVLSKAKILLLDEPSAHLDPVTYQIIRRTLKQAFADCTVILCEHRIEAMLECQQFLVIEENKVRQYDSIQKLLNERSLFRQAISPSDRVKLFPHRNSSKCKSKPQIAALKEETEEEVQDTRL
# ASSAY REMARKS: Cell Surface Expression-Horse Radish Peroxidase (CSE-HRP) Assay;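 as to Maximum % activity (without co-corrector): percent of the 2 µM on-plate positive control corrector response above DMSO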
# Assay type: cell-based
# STATED CONDITIONS: test compound without co-corrector; maximum at any tested concentration, normalized to on-plate positive control; read-out: Maximum % activity (without co-corrector)

| COMPOUND | Emax |
| --- | --- |
| COc1ccc(C(F)(F)F)cc1CN[C@@H]1[C@@H](C(C)(C)C)[C@H](C(=O)O)N(C(=O)C(OC)c2ccccc2)[C@@H]1c1cccnc1N(C)C (relative stereo) [III-88] | < 100% |
| CC(C)(C)[C@@H]1[C@@H](Nc2cc(C(F)(F)F)cc(=O)[nH]2)[C@@H](c2ccccc2)N(C(=O)C2CCCCC2)[C@H]1C(=O)O (racemic) [III-23] | < 100% |
| CCC(C)c1ccc(OC)c(CN[C@H]2[C@H](C(C)(C)C)[C@@H](C(=O)O)N(C(=O)C3CCCCC3)[C@H]2c2ccccc2)c1 (stereo partly drawn) [III-168] | > 200% |

* * *

# TARGET SYSTEM: F508delCFTR (Homo sapiens, UniProt P13569, DEL508-508)
# Construct: expressed in transfected cells; host or cells: CFBE41o- human lung-derived epithelial cells (CFBE4lo-F508delCFTR-HRP), doxycycline-inducible
# ASSAY REMARKS: Cell Surface Expression-Horse Radish Peroxidase (CSE-HRP) Assay
# Format: cell-based
# STATED CONDITIONS: CSE-HRP; test compound without co-corrector; read-out: EC50 (without co-corrector)
# Method: Cell Surface Expression-Horse Radish Peroxidase (CSE-HRP) Assay The development was achieved by expressing the F508delCFTR mutation along with a horseradish peroxidase (HRP) in the fourth exofacial loop, and then measuring the HRP activity using luminescence readout from these cells, CFBE4lo-F508delCFTR-HRP, that were incubated overnight with the test corrector compounds, either without or with the co-corrector. […] The raw counts from the experiment were analyzed using Accelrys® Assay Explorer v3.3. […]

| COMPOUND | EC50 |
| --- | --- |
| COc1ccc(C(C)(C)C)cc1CN[C@H]1[C@H](C(C)(C)C)[C@@H](C(=O)O)N(C(=O)c2cc(-c3ccccc3)nn2C)[C@H]1c1ccccc1 [II-226] | < 1000 nM |
| COc1ccc(C(F)(F)F)cc1CN[C@H]1[C@H](C(C)(C)C)[C@@H](C(=O)O)N(C(=O)C2CCCCC2)[C@H]1c1cccnc1C [II-93] | 1000 to 10000 nM |
| CC(C)(C)[C@H]1[C@H](NCc2cc(Cl)cc(Cl)c2)[C@H](c2ccccc2)N(C(=O)C2CCCCC2)[C@@H]1C(=O)O [II-111] | 1000 to 10000 nM |
| COc1ccc(C(C)(C)C)cc1CN[C@H]1[C@H](C(C)(C)C)[C@@H](C(=O)O)N(C(=O)C2CCC(C#N)CC2)[C@H]1c1ccccc1 (stereo partly drawn) [II-175] | 1000 to 10000 nM |
| COc1ccc(C(C)(C)C)cc1CN[C@H]1[C@H](C(C)(C)C)[C@@H](C(=O)O)N(C(=O)C2CC(=O)N(C(C)C)C2)[C@H]1c1ccccc1 (stereo partly drawn) [II-238] | 1000 to 10000 nM |
| COc1ccc(C(F)(F)F)cc1CN[C@@H]1[C@@H](C(C)(C)C)[C@H](C(=O)O)N(C(=O)C2CCC(F)(F)CC2)[C@@H]1c1ccccc1 (racemic) [II-68] | 1000 to 10000 nM |
| CC(C)(C)[C@H]1[C@H](NCc2cc(Cl)ccc2OC(F)F)[C@H](c2ccccc2)N(C(=O)C2CCCCC2)[C@@H]1C(=O)O [II-107] | < 1000 nM |
| COc1ccc(CN[C@@H]2[C@@H](C(C)(C)C)[C@H](C(=O)O)N(C(=O)C3CCCCC3)[C@@H]2c2ccccc2)c(OC)c1Cl (racemic) [II-3] | 1000 to 10000 nM |
| Cc1cc(C(F)(F)F)cc(N[C@@H]2[C@@H](C)[C@H](C(=O)O)N(C(=O)N(C(C)C)C(C)C)[C@@H]2c2ccccc2)n1 [II-11] | 1000 to 10000 nM |
| COc1ncc(C(F)(F)F)cc1CN[C@H]1[C@H](C(C)(C)C)[C@@H](C(=O)O)N(C(=O)C2CCC2)[C@H]1c1ccccc1C(C)C [Example I-273] | 1000 to 10000 nM |
| COc1ccc(C(C)(C)C)cc1CN[C@H]1[C@H](C(C)(C)C)[C@@H](C(=O)O)N(C(=O)C(C)n2cc(Cl)c(C)n2)[C@H]1c1ccccc1 (single isomer, unassigned) [II-237] | 1000 to 10000 nM |
| COc1ccc(C(F)(F)F)cc1CN[C@H]1[C@H](C(C)(C)C)[C@@H](C(=O)O)N(C(=O)[C@@H]2CCCO2)[C@H]1c1cccnc1C1CC1 [Example I-269] | 1000 to 10000 nM |

* * *

# TARGET SYSTEM: F508delCFTR (Homo sapiens, UniProt P13569, DEL508-508)
# Construct: expressed in transfected cells; host or cells: CFBE41o- human lung-derived epithelial cells (CFBE4lo-F508delCFTR-HRP), doxycycline-inducible
# ASSAY REMARKS: Cell Surface Expression-Horse Radish Peroxidase (CSE-HRP) Assay
# Format: cell-based
# STATED CONDITIONS: with co-corrector (2 μM of 3-[(2R,4R)-4-({[1-(2,2-difluoro-1,3-benzodioxol-5-yl)cyclopropyl]carbonyl}amino)-7-methoxy-3,4-dihydro-2H-chromen-2-yl]benzoic acid); read-out: EC50 (with co-corrector)
pEC50: −log10 of the molar value.

| SMILES DATA | pEC50 |
| --- | --- |
| COc1ccc(C2(C)CCC2)cc1CN[C@H]1[C@H](C(C)(C)C)[C@@H](C(=O)O)N(C(=O)[C@@H]2CCCO2)[C@H]1c1ccccc1C | > 6.00 |
| COc1ccc(C(C)(C)C)cc1CN[C@H]1[C@H](C(C)(C)C)[C@@H](C(=O)O)N(C(=O)[C@@H]2CCCO2)[C@H]1c1ccccc1C(C)C | > 6.00 |
| COc1ccc(C(C)(C)C)cc1CN[C@H]1[C@H](C(C)(C)C)[C@@H](C(=O)O)N(C(=O)C2CC(C)(C)C2)[C@H]1c1ccccc1 | 5.00 to 6.00 |
| COc1ccc(C(C)(C)C)cc1CN[C@H]1[C@H](C(C)(C)C)[C@@H](C(=O)O)N(C(=O)c2cnn(C(C)(C)C)c2C(F)(F)F)[C@H]1c1ccccc1 | > 6.00 |
| COc1ccc(C(C)(C)C)cc1CN[C@H]1[C@H](C(C)(C)C)[C@@H](C(=O)O)N(C(=O)c2cc3occc3n2C)[C@H]1c1ccccc1 | 5.00 to 6.00 |
| COc1ccc(C(F)(F)F)cc1CN[C@@H]1[C@@H](C(C)(C)C)[C@H](C(=O)O)N(C(=O)[C@H](OC)c2ccccc2)[C@@H]1c1ccccc1N(C)C | 5.00 to 6.00 |

* * *

# TARGET SYSTEM: F508delCFTR (Homo sapiens, UniProt P13569, DEL508-508)
# Construct: expressed in transfected cells; host or cells: CFBE41o- human lung-derived epithelial cells (CFBE4lo-F508delCFTR-HRP), doxycycline-inducible
# ASSAY REMARKS: Cell Surface Expression-Horse Radish Peroxidase (CSE-HRP) Assay;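 as to Maximum % activity (with co-corrector): co-corrector and positive control are both the same reference corrector at 2 µM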
# Type: cell-based
# STATED CONDITIONS: with co-corrector (2 μM of 3-[(2R,4R)-4-({[1-(2,2-difluoro-1,3-benzodioxol-5-yl)cyclopropyl]carbonyl}amino)-7-methoxy-3,4-dihydro-2H-chromen-2-yl]benzoic acid); maximum at any tested concentration, normalized to on-plate positive control
MEASURED PROPERTY: Maximum % activity (with co-corrector)

| MOLECULE | TARGET SYSTEM | REPORTED VALUE |
| --- | --- | --- |
| Cc1cc(C(F)(F)F)cc(N[C@H]2[C@H](C(C)(C)C)[C@@H](C(=O)O)N(C(=O)C3CCCCC3)[C@H]2c2ccccc2C)n1 | F508delCFTR (Homo sapiens, UniProt P13569, DEL508-508) | +++ (≥350) |
| C=CCCOC(=O)N1[C@H](C(=O)O)[C@@H](C(C)(C)C)[C@H](NCc2cc(C(C)(C)C)ccc2OC)[C@@H]1c1ccccc1 | F508delCFTR (Homo sapiens, UniProt P13569, DEL508-508) | +++ (≥350) |
| COc1cc2c(cc1CN[C@H]1[C@H](C(C)(C)C)[C@@H](C(=O)O)N(C(=O)OC(C)C)[C@H]1c1cccnc1N(C)C)CCC2 | F508delCFTR (Homo sapiens, UniProt P13569, DEL508-508) | +++ (≥350) |
| COc1ccc(-n2ncc(C(=O)N3[C@H](C(=O)O)[C@@H](C(C)(C)C)[C@H](NCc4cc(C(C)(C)C)ccc4OC)[C@@H]3c3ccccc3)c2C)cc1 | F508delCFTR (Homo sapiens, UniProt P13569, DEL508-508) | +++ (≥350) |
| COc1ccc(C(F)(F)F)cc1CN[C@H]1[C@H](C(C)(C)C)[C@@H](C(=O)O)N(C(=O)C2CCc3cc(C)ccc3O2)[C@H]1c1ccccc1 (stereo partly drawn) | F508delCFTR (Homo sapiens, UniProt P13569, DEL508-508) | +++ (≥350) |
| COc1ncc(C2CCC2)cc1CN[C@H]1[C@H](C(C)(C)C)[C@@H](C(=O)O)N(C(=O)C2COc3ccccc3O2)[C@H]1c1ccccc1 (stereo partly drawn) | F508delCFTR (Homo sapiens, UniProt P13569, DEL508-508) | +++ (≥350) |

Cited source: patent US20180099931A1
